Source of measurements: patent US20100260765A1

# target-or-test-system: T1, soluble KDR extracellular domain (ECD) (Calbiochem) (human, UniProt P35968 20-764)
# T1 construct: extracellular domain; Bought protein; also called KDR-ECD; VEGF Receptor 2 D1-7, Cat. #676490
# T1 sequence (P35968 20-764): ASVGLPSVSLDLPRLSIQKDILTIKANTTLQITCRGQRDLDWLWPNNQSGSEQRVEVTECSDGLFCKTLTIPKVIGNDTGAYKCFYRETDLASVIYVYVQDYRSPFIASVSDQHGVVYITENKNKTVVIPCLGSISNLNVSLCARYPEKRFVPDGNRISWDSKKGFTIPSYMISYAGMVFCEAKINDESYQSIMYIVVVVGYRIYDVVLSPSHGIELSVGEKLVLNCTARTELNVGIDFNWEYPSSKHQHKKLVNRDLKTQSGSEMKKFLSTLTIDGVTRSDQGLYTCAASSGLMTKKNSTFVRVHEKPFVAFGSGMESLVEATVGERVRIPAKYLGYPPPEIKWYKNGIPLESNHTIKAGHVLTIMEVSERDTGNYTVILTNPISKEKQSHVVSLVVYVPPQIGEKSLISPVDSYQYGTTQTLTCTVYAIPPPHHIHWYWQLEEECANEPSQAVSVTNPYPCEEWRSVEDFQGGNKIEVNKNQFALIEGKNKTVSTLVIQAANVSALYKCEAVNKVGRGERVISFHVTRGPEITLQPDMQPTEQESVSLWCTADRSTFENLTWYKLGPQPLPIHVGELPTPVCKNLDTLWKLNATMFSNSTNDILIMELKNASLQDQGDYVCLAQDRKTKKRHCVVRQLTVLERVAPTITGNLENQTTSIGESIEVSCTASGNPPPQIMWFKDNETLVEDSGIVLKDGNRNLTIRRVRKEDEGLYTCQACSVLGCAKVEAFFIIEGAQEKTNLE
# test-description: Limited Antigen ELISA, KDR coat 25 ng/mL, supernatant 1:25
result-type: ELISA reading

binder: 32F4 (antibody, V domains shown, Fully human mAb from XenoMouse hybridoma, tested as hybridoma supernatant) VH: QLQLQESGPGLVKPSGTLSLSCTVSGGSISSRSDYWGWIRQPPGKGLEWIGTIYYSGNTFYNPSLKSRVTISVDTSKKQFSLKLSSVTAADTAVYYCARQQLVLYYFDYWGQGTLVTVSS VL: EIVLTQSPGTLSLSPGERATLSCRTSQSVSSSYLAWYQQKPGQAPRLLIYGASSRATGVPDRFSGSGSGTDFSLTISRLEPEDFAVYYCQQYGSSPPLTFGGGTKVEIK
numeric-result: 1.09
--
binder: 21A1 (antibody, V domains shown, Fully human mAb from XenoMouse hybridoma, tested as hybridoma supernatant) VH: QVQLVESGGGLVKPGGSLRLSCAASGFTFSDYYMSWIRQAPGKGLEWVSYISNSGITIYYADSVKGRFTISRDNAKNSLYLQMNSLRAGDTAVYYCAREEWYSSRWYRNFDYWGQGTLVTVSS VL: DIQMTQFSSSLSASVGDRVTITCRASQSISRYLNWYQQKPGKAPKLLIYAASSLQSGVPSRFNGSGSGTDFTLTISSLQPEDFATYYCQQSYSAPLTFGGGTKVEIK
numeric-result: 1.47
--
binder: 24B3 (antibody, V domains shown, Fully human mAb from XenoMouse hybridoma, tested as hybridoma supernatant) VH: EVQLVESGGGLVKPGGSLRLSCAASGFTFSTYSMNWVRQAPGKGLEWVSFISGRSSYIYYADSVKGRFTISRDNAKNSLYLQMNSLRAEDTAVYYCSKDDWFEELWGQGTLVTVSS VL: DIQMTQSPSSLSASVGDRVTITCRASQGIRSDLGWYQQKPGKAPKRLIYATSSLQSGVPSRFSGSGSGTEFTLTISSLQPEDFATYYCLQHNRYPWTFGQGTKVEIK
numeric-result: 0.21
